# target.entity: SHP2-C SH2
# procedure.details: SH2 binding enrichment of the phosphorylated peptide, bacterial display (enrichment ratio); higher = better substrate or ligand; peptides without Tyr show the background
Binning rule for recorded SH2 binding enrichment: bottom bin (below 0.7), middle bin (0.7 to below 0.9), top bin (0.9 or more)

>>> answer_label("LEISPYMLSGP [LRRK2_Y1718_R1723P]")
"bottom bin"
>>> answer_label("PPLMLYNPTTY [EGFR_Y270]")
"top bin"
>>> answer_label("GRPMDYQVSIT [OTOF_Y254]")
"bottom bin"
>>> answer_label("KSIQLYDTPFE [SHB_Y297_G293S_YF]")
"middle bin"
>>> answer_label("VEYAKYGSLRG [RET_Y809]")
"top bin"
>>> answer_label("TSPKSYPSQKH [CAP2_Y316]")
"bottom bin"
>>> answer_label("TNYCLYLRSLE [MTM1_Y71_R69C]")
"top bin"
>>> answer_label("RFGRKYKKVRF [F8_Y442_I438F]")
"bottom bin"
>>> answer_label("YPPTHYIRRMP [SLC4A11_Y820_V824M]")
"middle bin"
>>> answer_label("RRESQYQENRG [LRCH3_Y354]")
"bottom bin"
>>> answer_label("TENAGYYFRIS")
"middle bin"
>>> answer_label("ASFSLYEPAKM [MKI67_Y340_P338S]")
"middle bin"
>>> answer_label("QLFGAYLRIHA [BSCL2_Y213_YF]")
"top bin"
>>> answer_label("ARVDTYCRHNF [HLA-DRB1_Y107_A103R_YF]")
"middle bin"
>>> answer_label("INPIIYAFVGG [CCR5_Y297_E302G]")
"bottom bin"
>>> answer_label("YMRGMYFRMKD [PLA2G6_Y541]")
"top bin"
>>> answer_label("MSSLPYMKMIF [SLC4A11_Y853]")
"top bin"
>>> answer_label("KQQEIYQELTQ [CD209_Y239]")
"bottom bin"
>>> answer_label("RRIHSYRSHLW [VHL_Y112_G114S]")
"middle bin"
>>> answer_label("FFIMMYTGSNV [DNAJC13_Y1131]")
"middle bin"
>>> answer_label("YEKFLYFLPAS [DYNC2H1_Y346_H341Y]")
"top bin"
>>> answer_label("LARDIYKNDYY [ROS1_Y2110]")
"middle bin"
>>> answer_label("GKFFQYDTWKQ [IGF2_Y116]")
"middle bin"
>>> answer_label("LEPHIYAVADV [MYO9A_Y216]")
"middle bin"
>>> answer_label("CDIARYIVSQL [MAST2_Y461_P459A]")
"middle bin"
>>> answer_label("SHMVDYQPYRK [TEX37_Y25]")
"bottom bin"
>>> answer_label("NNIDYYKKTTN [FGFR2_Y657]")
"bottom bin"
>>> answer_label("VHHLVYHHHHH [CACNA1H_Y519]")
"top bin"
>>> answer_label("GRVYVYRLSEQ [ITGAE_Y551]")
"top bin"

###

# target.entity: SHP2-C SH2;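 further: peptide library displayed on the E. coli surface as eCPX fusions, selected cells deep-sequenced, score is each peptide's frequency after selection divided by its frequency in the input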
# procedure.details: SH2 binding enrichment of the phosphorylated peptide, bacterial display (enrichment ratio); higher = better substrate or ligand; peptides without Tyr show the background
SH2 binding enrichment below 0.7 gives not satisfied; SH2 binding enrichment at or above it gives satisfied.

>>> answer_label("PARLEYFENEK [IRS1_Y46_YF]")
"satisfied"
>>> answer_label("TLPAFYMGNFS [GLB1_Y552]")
"satisfied"
>>> answer_label("AGITAYQSCLQ [ADGRA2_Y377]")
"not satisfied"
>>> answer_label("FASALYGQRRS [FGF11_Y162_R163G_YF]")
"not satisfied"
>>> answer_label("KSLSQYLEMDK [CAGE1_Y438_V435L]")
"satisfied"
>>> answer_label("EDSEFYKAFEE [CASQ2_Y179_YF]")
"not satisfied"
